# Test system: LOX IMVI
# experimentalProtocol: NCI tumour cell line growth inhibition, 48 h
Active and inactive are the calls of the source. No stated cut-off is given here; in the data, active = GI50 up to about 1.1 µM and inactive = higher.
Entry note: the call must match one of yes (1) = active, no (0) = inactive

[ask] Which outcome was entered for the molecule O=C(Nc1cc(Cl)c(Cl)cc1Cl)C(=O)C1C(=O)NC(=S)NC1=O in this test?
[reply] no (0)

[ask] Which outcome was entered for the molecule COc1cccc2c1C(=O)c1c(O)c3c(c(O)c1C2=O)C[C@@](O)(C(=O)CO)CC3OC1CC(NCCCC(OC(C)=O)OC(C)=O)C(O)C(C)O1 (stereo not given in full) in this test?
[reply] yes (1)

[ask] Which outcome was entered for the molecule CCC/C(Cl)=N/OC(=O)Nc1cc(C(F)(F)F)ccc1OC in this test?
[reply] no (0)

[ask] Which outcome was entered for the molecule CC1OC(OC2C[C@](O)(C(=O)CF)Cc3c(O)c4c(c(O)c32)C(=O)c2ccccc2C4=O)CC(N)C1O (stereo not given in full) in this test?
[reply] yes (1)

[ask] Which outcome was entered for the molecule COc1cc2c(cc1OCCCCOc1cc(-c3ccc(F)cc3)nc(C)n1)N=C[C@@H]1CCCN1C2=O in this test?
[reply] yes (1)

[ask] Which outcome was entered for the molecule Nn1c(CCCl)nc2c(Br)cc(Br)cc2c1=O in this test?
[reply] no (0)

[ask] Which outcome was entered for the molecule Cc1ccc(NC(=O)c2ccccc2C(=O)O)cc1C in this test?
[reply] no (0)

[ask] Which outcome was entered for the molecule CNc1ccc([N+](=O)[O-])cc1C(=O)N1CCC[C@H]1CO in this test?
[reply] no (0)

[ask] Which outcome was entered for the molecule CC(C)(C)C(C#N)(C#N)c1ccc(C(C#N)(C#N)C(C)(C)C)nn1 in this test?
[reply] no (0)

[ask] Which outcome was entered for the molecule NC1=NC(c2ccccc2)CC(c2cc(Cl)cc(Br)c2O)=N1 (stereo not given) in this test?
[reply] no (0)

====

Provide the reported GI50 of each item.
# Test system: SK-MEL-28
# experimentalProtocol: NCI tumour cell line growth inhibition, 48 h
The source made the active and inactive calls. Rule as the data show it: active = GI50 up to about 1.1 µM and inactive = higher. Non-standard residues stand in square brackets, D forms with d. Residues, ends and D or L forms follow the SMILES beside them. *: point of attachment. NMeF = CN[CH](Cc1ccccc1)C(=O)O; NMeV = CN[CH](C(=O)O)C(C)C; Boc = CC(C)(C)OC(=O)*; OBn = c1ccc(CO*)cc1

CC(=O)O[C@H]1C=CC23OC(=O)[C@]1(C)[C@H]2[C@H](C(=O)O)C12CC(=O)[C@@](CO)(CC[C@H]13)C2 has a reported GI50 of > 100 µM (inactive)

C/C(=N\NC(=O)C[N+](C)(C)C)c1sc(-c2cccnc2)nc1C has a reported GI50 of > 100 µM (inactive)

O=C(CC1(O)C(=O)Nc2ccc([N+](=O)[O-])cc21)c1ccc(Br)cc1 (stereo not drawn) has a reported GI50 of > 100 µM (inactive)

COc1cc(C2c3cc4c(cc3OC(N3CCCC3)C2C)OCO4)cc(OC)c1O (stereo not drawn) has a reported GI50 of > 43.9 µM (inactive)

COc1cccc(NC(=O)C(C)(C)C)c1C=O has a reported GI50 of > 100 µM (inactive)

C[C@@H](NC(=O)[C@@H]1C[C@]1(C)CO)c1cccc2ccccc12 has a reported GI50 of > 100 µM (inactive)

O=[N+]([O-])c1ccc2c(c1)/C(=N/N=C1c3ccccc3Cc3ccccc31)c1cc([N+](=O)[O-])cc([N+](=O)[O-])c1-2 has a reported GI50 of 3.45 µM (inactive)

NC(=O)c1ncn(Cc2ccccc2)c1CNC(N)=S has a reported GI50 of > 100 µM (inactive)

C/C(Cc1ccc2c(c1)OCO2)=N\N=c1\sc2ccccc2n1C has a reported GI50 of > 100 µM (inactive)

CCc1n[nH]c(=O)n1N has a reported GI50 of > 100 µM (inactive)

C[Si](C)(C)C1=C2C(=O)c3ccccc3C(=O)C2=C([Si](C)(C)C)[C@@H]2CCCC[C@H]12 has a reported GI50 of > 100 µM (inactive)

CC(=O)/C(=C/c1ccccc1F)C(=O)c1ccccc1 has a reported GI50 of 53.2 µM (inactive)

CC(C)C(NC(=O)OC(C)(C)C)C(=O)N(C)C(Cc1ccccc1)C(=O)N(C)C(C(=O)OCc1ccccc1)C(C)C (stereo not drawn) (Boc-Val-[NMeF]-[NMeV]-OBn; configuration not given here) has a reported GI50 of > 100 µM (inactive)

[N-]=[N+]=Nc1ccc2c(c1)Sc1ccccc1N2CCCCN1CCN(Cc2ccc(C(=O)c3ccc(CSCC(N)C(=O)O)cc3)cc2)CC1 (stereo not drawn) has a reported GI50 of 2.01 µM (inactive)

FC1=C2C3CCC(C3)C2C1(F)F (stereo not drawn) has a reported GI50 of > 100 µM (inactive)

CCCCCCCCCCCCC/C=C/[C@@H](O)[C@H](COC1OC(CO)C(OC2OC(CO)C(O)C(OC3(C(=O)O)CC(O)C(NC(C)=O)C(C(O)C(O)CO)O3)C2O)C(O)C1O)N=[N+]=[N-] (stereo partly drawn) has a reported GI50 of 30.3 µM (inactive)

C=CCOC(=O)c1c(C)[n+]([O-])c2cc(Cl)c(Cl)cc2[n+]1[O-] has a reported GI50 of 16.1 µM (inactive)

FC(F)(F)c1ccc2c(c1)nc(Cc1ccc(Cl)cc1)n2CC1CCCN2CCCCC12 (stereo not drawn) has a reported GI50 of 2.52 µM (inactive)

====

# System: DU-145
# experimentalProtocol: NCI tumour cell line growth inhibition, 48 h
Active and inactive are the calls of the source. Rule as the data show it: active = GI50 up to about 1.1 µM and inactive = higher. Residues, ends and D or L forms follow the SMILES beside them. *: point of attachment. Fmoc = O=C(OCC1c2ccccc2-c2ccccc21)*; Boc = CC(C)(C)OC(=O)*
Provide the reported GI50 of each item.

Cc1cc2ncn(C3CCCO3)c2cc1C (configuration not stated) has a reported GI50 of > 100 µM (inactive)

COc1ccc(OC)c2sc(N3C(=O)/C(=C/Cc4ccco4)N=C3c3ccccc3)nc12 has a reported GI50 of 32.4 µM (inactive)

O=C1C=C[C@@]23C[C@@H](NC4=C2C2=NCCc5c[nH]c(c52)C4=O)SC3=C1 has a reported GI50 of 18.2 µM (inactive)

CCCCCCCCCCCCC/C=C/[C@@H](O)[C@H](COC1OC(CO)C(OC2OC(CO)C(O)C(OC3(C(=O)O)CC(O)C(NC(C)=O)C(C(O)C(O)CO)O3)C2O)C(O)C1O)N=[N+]=[N-] (some centres not stated) has a reported GI50 of > 100 µM (inactive)

Cc1cn(C2CC(n3cc(Cn4cc(I)c(=O)[nH]c4=O)nn3)C(CO)O2)c(=O)[nH]c1=O (configuration not stated) has a reported GI50 of > 100 µM (inactive)

Cc1nn(C(=O)Cc2ccccc2)c2c1C(c1ccccc1O)SC(=N)N2 (configuration not stated) has a reported GI50 of > 100 µM (inactive)

Cc1cccc(C(C)(C)C)c1NC(=O)C(C#N)C1=C(Cl)C(=O)c2ccccc2C1=O (configuration not stated) has a reported GI50 of 22 µM (inactive)

CN(C)/C=N/S(=O)(=O)c1nn2c(C=O)c(-c3ccc([N+](=O)[O-])cc3)nc2s1 has a reported GI50 of 6.67 µM (inactive)

COC(=O)c1ccc(/C=C/c2cc(O)ccc2O)cc1 has a reported GI50 of 14.9 µM (inactive)

Cc1ccc(C2=CC(=O)/C(=C\C(=O)c3ccc(Cl)cc3)O2)cc1 has a reported GI50 of 32.6 µM (inactive)

CC(C)(C)OC(=O)NCCCCC(NC(=O)C(Cc1c[nH]c2ccccc12)NC(=O)OCC1c2ccccc2-c2ccccc21)C(=O)N1CCCC1C(=O)NCC(N)=O (configuration not stated) (Fmoc-WK(Boc)PG-NH2; configuration not given here) has a reported GI50 of > 100 µM (inactive)

CN1CCN(C(=S)N(C(=O)c2ccco2)C2CCCCC2)CC1 has a reported GI50 of > 100 µM (inactive)

====

# Test system: SF-295
# experimentalProtocol: NCI tumour cell line growth inhibition, 48 h
Activity calls are given as the source filed them. Rule as the data show it: active = GI50 up to about 1.1 µM and inactive = higher.
readoutName: GI50

CN1CCN(C(=S)N(C(=O)c2ccco2)C2CCCCC2)CC1 has a reported GI50 of > 100 µM (inactive)

CN(C(=O)c1ccc(Cl)cc1)C(=S)N1CCN(c2ccccn2)CC1 has a reported GI50 of > 100 µM (inactive)

Cc1cc(Nc2ccc(S(=O)(=O)O)c3cc(S(=O)(=O)O)cc(S(=O)(=O)O)c23)c2ccccc2n1 has a reported GI50 of > 100 µM (inactive)

CN(C)/C=N/S(=O)(=O)c1nn2c(C=O)c(-c3ccc([N+](=O)[O-])cc3)nc2s1 has a reported GI50 of 35.1 µM (inactive)

O=C(CCC(=O)Nc1ccc(Cl)c(Cl)c1)CC(=O)c1ccc2ccccc2c1 has a reported GI50 of > 100 µM (inactive)

Every entry's value here was drawn from ChEMBL document CHEMBL1201862.
